The reader will find reported CC50 values listed item by item below.
# Protocol text: Cytotoxicity against human HePAD38 cells assessed as reduction in cell viability by CCK-8 assay
# Assay type: toxicity, cell-based

{"Compound": "Nc1ccn([C@@H]2CS[C@H](CO)O2)c(=O)n1 [LAMIVUDINE]", "Comparison sign": ">", "CC50 (µM)": 50}
{"Compound": "CCOC(=O)C1=C(CN2CCN(C(C(=O)O)c3ccc(C#N)cc3)CC2)NC(c2nccs2)=NC1c1ccc(F)cc1Br (stereo not given)", "Comparison sign": "=", "CC50 (µM)": 29.2}
{"Compound": "CCOC(=O)C1=C(CN2CCN(C(C(=O)O)c3ccc(C=O)cc3)CC2)NC(c2nccs2)=NC1c1ccc(F)cc1Br (stereo not given)", "Comparison sign": ">", "CC50 (µM)": 50}
{"Compound": "CCOC(=O)C1=C(CN2CCN(C(C(=O)O)c3ccc(Cl)cc3)CC2)NC(c2nccs2)=NC1c1ccc(F)cc1Br (stereo not given)", "Comparison sign": "=", "CC50 (µM)": 22.4}
{"Compound": "C=Cc1ccc(C(C(=O)O)N2CCN(CC3=C(C(=O)OCC)C(c4ccc(F)cc4Br)N=C(c4nccs4)N3)CC2)cc1 (stereo not given)", "Comparison sign": "=", "CC50 (µM)": 22.4}
{"Compound": "CCOC(=O)C1=C(CN2CCN(C(C(=O)O)C3=CCCCC3)CC2)NC(c2nccs2)=NC1c1ccc(F)cc1Br (stereo not given)", "Comparison sign": "=", "CC50 (µM)": 29.2}
{"Compound": "CCOC(=O)C1=C(CN2CCN(C(C(=O)O)c3ccccc3C#N)CC2)NC(c2nccs2)=NC1c1ccc(F)cc1Br (stereo not given)", "Comparison sign": "=", "CC50 (µM)": 50}
{"Compound": "CCOC(=O)C1=C(CN2CCN(C(C(=O)O)c3cccc(C(F)(F)F)c3)CC2)NC(c2nccs2)=NC1c1ccc(F)cc1Br (stereo not given)", "Comparison sign": "=", "CC50 (µM)": 22.4}
{"Compound": "CCOC(=O)C1=C(CN2CCN(C(C(=O)O)c3cccc(O)c3)CC2)NC(c2nccs2)=NC1c1ccc(F)cc1Br (stereo not given)", "Comparison sign": ">", "CC50 (µM)": 50}
{"Compound": "CCOC(=O)C1=C(CN2CCN(C(C(=O)O)c3cccc([N+](=O)[O-])c3)CC2)NC(c2nccs2)=NC1c1ccc(F)cc1Br (stereo not given)", "Comparison sign": "=", "CC50 (µM)": 29.2}
{"Compound": "CCOC(=O)C1=C(CN2CCN(C(C(=O)O)c3ccccc3)CC2)NC(c2nccs2)=NC1c1ccc(F)cc1Br (stereo not given)", "Comparison sign": ">", "CC50 (µM)": 50}
{"Compound": "CCOC(=O)C1=C(CN2CCN(C(C(=O)O)c3ccc(OC)c(OC)c3)CC2)NC(c2nccs2)=NC1c1ccc(F)cc1Br (stereo not given)", "Comparison sign": ">", "CC50 (µM)": 50}
{"Compound": "CCOC(=O)C1=C(CN2CCN(C(C(=O)O)c3cccc(C#N)c3)CC2)NC(c2nccs2)=NC1c1ccc(F)cc1Br (stereo not given)", "Comparison sign": "=", "CC50 (µM)": 22.4}
{"Compound": "CCOC(=O)C1=C(CN2CCN(C(C(=O)O)c3ccc4occc4c3)CC2)NC(c2nccs2)=NC1c1ccc(F)cc1Br (stereo not given)", "Comparison sign": "=", "CC50 (µM)": 22.4}
{"Compound": "CCOC(=O)C1=C(CN2CCN(C(C(=O)O)c3ccc(O)cc3)CC2)NC(c2nccs2)=NC1c1ccc(F)cc1Br (stereo not given)", "Comparison sign": "=", "CC50 (µM)": 22.4}

Entry source: ChEMBL document CHEMBL5329208
